B1: PLD5 (parent)
chain: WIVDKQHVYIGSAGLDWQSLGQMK

- Variants of: B1
- protocol text: protein stability index of a GFP-peptide fusion (GPS, HEK-293T) (PSI 1-6); higher = more stable;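 also: lentivirally expressed fusions sorted by FACS into six bins by GFP to DsRed ratio, PSI derived from sequencing read proportions per bin multiplied by bin number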
- protocol conditions: c terminus: a fixed tail appended
The threshold is inclusive: protein stability index of exactly 2 counts as true (1); values below receive false (0).

Answered cases to consult:
>>> df
   mutation_descriptor  label_value
0                 S12M    false (0)
1                  V8R     true (1)
2                 G11Q    false (0)
3                  Q6M     true (1)
4                 G21S    false (0)
5                 L15S    false (0)
6                  Y9D    false (0)
7                  K5F     true (1)

Query: Confirm if protein stability index reported for the variant K24P is 2 or above.
Result: true (1)

Query: Is the recorded value of protein stability index equal to or greater than 2 for this variant? L20F
Result: false (0)

Query: Test whether the variant A13R records protein stability index of 2 or higher.
Result: true (1)

Query: # bool: protein stability index of M23S >= 2
Result: false (0)

Query: In plain terms: is recorded protein stability index at least 2 for K5H ?
Result: false (0)

The reported measurements were obtained from the supplement of paper PMC10567573.
